Values were extracted from patent US6573218B1.

Quick reference: Post-emerge crop damage SOY (phytotoxicity rating 0-100) of the listed items.
Test system: soybean (Glycine max L., var. Pella 86, SOY)
assay.overview: Post-emerge greenhouse crop damage test
Format: in vivo
assay.conditions: var. Pella 86, soybean (Glycine max L.), in vivo, 14 days
measured.property: Post-emerge crop damage SOY (phytotoxicity rating 0-100)

compound	system.under.test	test.result
Cn1c(C(F)(F)F)cc(=O)n(-c2c(F)cc(Cl)c3c2N=C(c2ccccc2)CO3)c1=O [Compound 1-3]	soybean (Glycine max L., var. Pella 86, SOY)	30
Cn1c(C(F)(F)F)cc(=O)n(-c2ccc(Cl)c3ccccc23)c1=O [Compound 5-1]	soybean (Glycine max L., var. Pella 86, SOY)	0
Cn1c(C(F)(F)F)cc(=O)n(-c2c(F)cc(Cl)c3c2NCCO3)c1=O [Compound 2-1]	soybean (Glycine max L., var. Pella 86, SOY)	90
COC(=O)CC1CNc2c(c(Cl)cc(F)c2-n2c(=O)cc(C(F)(F)F)n(C)c2=O)O1 (stereo not shown) [Compound 2-8]	soybean (Glycine max L., var. Pella 86, SOY)	100
CCc1nc2c(-n3c(=O)n4n(c3=S)CCC=C4)c(F)cc(Cl)c2o1 [Compound 8-1]	soybean (Glycine max L., var. Pella 86, SOY)	100
CC1Oc2c(Cl)cc(F)c(-n3c(=O)cc(C(F)(F)F)n(C)c3=O)c2NC1=O (stereo not shown) [Compound 4-3]	soybean (Glycine max L., var. Pella 86, SOY)	100
Cc1nc2c(-n3c(=O)cc(C(F)(F)F)n(C)c3=O)c(F)cc(Cl)c2oc1=O [Compound 3-1]	soybean (Glycine max L., var. Pella 86, SOY)	30

###

Tested on: upland rice (Ory0a sp., var.Tebonnet, RICE)
assay.overview: Post-emerge greenhouse crop damage test
Assay type: in vivo
assay.conditions: 250 g ai/ha, post-emerge, 14 days after application
measured.property: Post-emerge crop damage RICE (phytotoxicity rating 0-100)

compound	test.result
CCc1nc2c(N3C(=O)C4CCCCN4C3=S)c(F)cc(Cl)c2o1 (single isomer, unassigned) [Compound 7-6]	10
CCOC(=O)c1nc2c(-n3c(=O)cc(C(F)(F)F)n(C)c3=O)c(F)cc(Cl)c2oc1=O	0
CCc1nc2c(N3C(=O)C4CCCCN4C3=S)c(F)cc(Cl)c2o1 (single isomer, unassigned) [Compound 7-5]	10
Cc1nc2c(-n3ncc(C(F)(F)F)cc3=O)c(F)cc(Cl)c2o1	10
CC1Oc2c(Cl)cc(F)c(-c3nn(C)c(OC(F)F)c3Cl)c2NC1=O (stereo not shown)	90
Nn1c(C(F)(F)F)cc(=O)n(-c2c(F)cc(Cl)c3c2NC(=O)CO3)c1=O	90
Cn1c(C(F)(F)F)cc(=O)n(-c2c(F)cc(Cl)c3c2NC(=O)CO3)c1=O	65

###

System: sicklepod (Cassia obtusifolia, CASOB)
assay.overview: Pre-emerge greenhouse herbicide test
Format: in vivo
assay.conditions: 250 g ai/ha, 14 days after application, scale 0-100 (0 no damage, 100 complete death)
// Pre-emerge Herbicidal Activity CASOB (phytotoxicity rating) lookup, one value per entry
measured.property: Pre-emerge Herbicidal Activity CASOB (phytotoxicity rating)

compound	test.result
COC(=O)CC1CNc2c(c(Cl)cc(F)c2-n2c(=O)cc(C(F)(F)F)n(C)c2=O)O1 (centres unmarked)	100
Cc1nc2c(-n3c(=O)cc(C(F)(F)F)n(C)c3=O)c(F)cc(Cl)c2oc1=O	0
Cn1c(C(F)(F)F)cc(=O)n(-c2c(F)cc(Cl)c3c2N=C(c2ccccc2)CO3)c1=O	80
Nn1c(C(F)(F)F)cc(=O)n(-c2c(F)cc(Cl)c3c2NC(=O)CO3)c1=O	100
CC1Oc2c(Cl)cc(F)c(-n3c(=O)cc(C(F)(F)F)n(C)c3=O)c2NC1=O (centres unmarked)	100
CCc1nc2c(N3C(=O)C4CCCCN4C3=O)c(F)cc(Cl)c2o1 (centres unmarked)	10
CCc1nc2c(-n3c(=O)n4n(c3=S)CCC=C4)c(F)cc(Cl)c2o1	90
CCc1nc2c(N3C(=O)C4CCCCN4C3=S)c(F)cc(Cl)c2o1 (single isomer, unassigned)	0

###

Tested on: johnsongrass (Sorghum halepense, SORHA)
assay.overview: Post-emerge greenhouse herbicide test
Format: in vivo
assay.conditions: 250 g ai/ha, 14 days after application
Labelling field: enter YES if recorded Post-emerge Herbicidal Activity SORHA (phytotoxicity rating 0-100) is less than 60. Enter NO if it equals or exceeds that cut-off.

compound	assigned.category
CCc1nc2c(-n3c(=O)n4n(c3=S)CCC=C4)c(F)cc(Cl)c2o1	NO
Cn1c(C(F)(F)F)cc(=O)n(-c2c(F)cc(Cl)c3c2NC(=O)CO3)c1=O	YES
CC1Oc2c(Cl)cc(F)c(-c3nn(C)c(OC(F)F)c3Cl)c2NC1=O (stereo not shown)	YES
COC(=O)CC1CNc2c(c(Cl)cc(F)c2-n2c(=O)cc(C(F)(F)F)n(C)c2=O)O1 (stereo not shown)	NO
Cn1c(C(F)(F)F)cc(=O)n(-c2c(F)cc(Cl)c3c2N=C(c2ccccc2)CO3)c1=O	YES
Cc1nc2c(-n3c(=O)cc(C(F)(F)F)n(C)c3=O)c(F)cc(Cl)c2oc1=O	YES
CC1Oc2c(Cl)cc(F)c(-n3c(=O)cc(C(F)(F)F)n(C)c3=O)c2NC1=O (stereo not shown)	NO
Cc1nc2c(-n3ncc(C(F)(F)F)cc3=O)c(F)cc(Cl)c2o1	YES
CCOC(=O)c1nc2c(-n3c(=O)cc(C(F)(F)F)n(C)c3=O)c(F)cc(Cl)c2oc1=O	YES
CCc1nc2c(N3C(=O)C4CCCCN4C3=S)c(F)cc(Cl)c2o1 (single isomer, unassigned)	YES

###

Test system: lambsquarters (Chenopodium album, CHEAL)
assay.overview: Post-emerge greenhouse herbicide test
Format: in vivo
assay.conditions: 250 g ai/ha, 14 days after application
measured.property: Post-emerge Herbicidal Activity CHEAL (phytotoxicity rating 0-100)

compound	test.result
Cn1c(C(F)(F)F)cc(=O)n(-c2c(F)cc(Cl)c3c2N=C(c2ccccc2)CO3)c1=O	20
COC(=O)CC1CNc2c(c(Cl)cc(F)c2-n2c(=O)cc(C(F)(F)F)n(C)c2=O)O1 (stereo not drawn)	100
CCOC(=O)c1nc2c(-n3c(=O)cc(C(F)(F)F)n(C)c3=O)c(F)cc(Cl)c2oc1=O	0
Cc1nc2c(-n3c(=O)cc(C(F)(F)F)n(C)c3=O)c(F)cc(Cl)c2oc1=O	60
Cn1c(C(F)(F)F)cc(=O)n(-c2c(F)cc(Cl)c3c2NC(=O)CO3)c1=O	100
CCc1nc2c(N3C(=O)C4CCCCN4C3=S)c(F)cc(Cl)c2o1 (single isomer, unassigned) [Compound 7-5]	100
Nn1c(C(F)(F)F)cc(=O)n(-c2c(F)cc(Cl)c3c2NC(=O)CO3)c1=O	100
CC1Oc2c(Cl)cc(F)c(-c3nn(C)c(OC(F)F)c3Cl)c2NC1=O (stereo not drawn)	100
CC1Oc2c(Cl)cc(F)c(-n3c(=O)cc(C(F)(F)F)n(C)c3=O)c2NC1=O (stereo not drawn)	100
Cc1nc2c(-n3ncc(C(F)(F)F)cc3=O)c(F)cc(Cl)c2o1	0
CCc1nc2c(N3C(=O)C4CCCCN4C3=S)c(F)cc(Cl)c2o1 (single isomer, unassigned) [Compound 7-6]	60
CCc1nc2c(-n3c(=O)n4n(c3=S)CCC=C4)c(F)cc(Cl)c2o1	99

###

System: soybean (Glycine max L., var. Pella 86, SOY)
assay.overview: Post-emerge greenhouse crop damage test
Type: in vivo
assay.conditions: 250 g ai/ha, post-emerge, 14 days after application
measured.property: Post-emerge crop damage SOY (phytotoxicity rating 0-100)

compound	test.result
CCOC(=O)c1nc2c(-n3c(=O)cc(C(F)(F)F)n(C)c3=O)c(F)cc(Cl)c2oc1=O [Compound 3-5]	0
Nn1c(C(F)(F)F)cc(=O)n(-c2c(F)cc(Cl)c3c2NC(=O)CO3)c1=O [Compound 4-2]	100
CC1Oc2c(Cl)cc(F)c(-c3nn(C)c(OC(F)F)c3Cl)c2NC1=O (centres unmarked) [Compound 10-8]	100
Cn1c(C(F)(F)F)cc(=O)n(-c2c(F)cc(Cl)c3c2NC(=O)CO3)c1=O [Compound 4-1]	100
Cc1nc2c(-n3ncc(C(F)(F)F)cc3=O)c(F)cc(Cl)c2o1 [Compound 12-1]	50

###

System: upland rice (Ory0a sp., var.Tebonnet, RICE)
assay.overview: Pre-emerge greenhouse crop damage test
Type: in vivo
assay.conditions: var. Tebonnet, upland rice (Ory0a sp.), in vivo, 14 days
measured.property: Pre-emerge Herbicidal Activity RICE (crop damage rating)

compound	system.under.test	test.result
CC1Oc2c(Cl)cc(F)c(-n3c(=O)cc(C(F)(F)F)n(C)c3=O)c2NC1=O (stereo not shown)	upland rice (Ory0a sp., var.Tebonnet, RICE)	99
CCc1nc2c(-n3c(=O)n4n(c3=S)CCC=C4)c(F)cc(Cl)c2o1	upland rice (Ory0a sp., var.Tebonnet, RICE)	20
Cc1nc2c(-n3c(=O)cc(C(F)(F)F)n(C)c3=O)c(F)cc(Cl)c2oc1=O	upland rice (Ory0a sp., var.Tebonnet, RICE)	0
Cn1c(C(F)(F)F)cc(=O)n(-c2c(F)cc(Cl)c3c2N=C(c2ccccc2)CO3)c1=O	upland rice (Ory0a sp., var.Tebonnet, RICE)	10
